Consider the following compounds; for each one, report its viability, T/C.
Test system: LG0567-F671-PDC complex spheroids viability
Experiment: Anticancer human tumor LG0567-F671-PDC patient-derived lung adenocarcinoma cell line growth inhibition [RAS]
Conditions: second compound 0.03 µM; first compound 0.00316 µM; stronger effect = lower value

Could you tell me which viability, T/C is on file for C=CC(=O)Nc1cc(Nc2nccc(-c3cn(C)c4ccccc34)n2)c(OC)cc1N(C)CCN(C)C + CCn1c(-c2cc(N3CCN(C)CC3)cnc2C(C)OC)c2c3cc(ccc31)-c1csc(n1)CC(NC(=O)C1CC1C)C(=O)N1CCCC(N1)C(=O)OCC(C)(C)C2 ?
3.85%

Could you tell me which viability, T/C is on file for O=C(c1ccc(F)c(F)c1Nc1ccc(I)cc1F)N1CC(O)([C@@H]2CCCCN2)C1 + CCn1c(-c2cc(N3CCN(C)CC3)cnc2C(C)OC)c2c3cc(ccc31)-c1csc(n1)CC(NC(=O)C1CC1C)C(=O)N1CCCC(N1)C(=O)OCC(C)(C)C2 ?
3.69%

Could you tell me which viability, T/C is on file for CC(C)n1nc(-c2ccc3oc(N)nc3c2)c2c(N)ncnc21 + CCn1c(-c2cc(N3CCN(C)CC3)cnc2C(C)OC)c2c3cc(ccc31)-c1csc(n1)CC(NC(=O)C1CC1C)C(=O)N1CCCC(N1)C(=O)OCC(C)(C)C2 ?
2.88%

Could you tell me which viability, T/C is on file for Nc1ccn(C2OC(CO)C(O)C2(F)F)c(=O)n1 (stereo not given) + CCn1c(-c2cc(N3CCN(C)CC3)cnc2C(C)OC)c2c3cc(ccc31)-c1csc(n1)CC(NC(=O)C1CC1C)C(=O)N1CCCC(N1)C(=O)OCC(C)(C)C2 ?
6.63%

Could you tell me which viability, T/C is on file for CC(C)n1nc(-c2ccc3oc(N)nc3c2)c2c(N)ncnc21 + CCn1c(-c2cccnc2C(C)OC)c2c3cc(ccc31)N1CCOC(CC(NC(=O)C(C(C)C)N(C)C(=O)C3(F)CCN(C(=O)C#CC(C)(C)N(C)C)CC3)C(=O)N3CCCC(N3)C(=O)OCC(C)(C)C2)C1 ?
11%

* * *

Consider the following compounds; for each one, report its viability, T/C.
Tested on: LG0567-F671-PDC complex spheroids viability
Assay: Anticancer human tumor LG0567-F671-PDC cell line growth inhibition [RAS];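 further: spheroids exposed to compound for seven days before readout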
Settings: second compound 0.01 µM; first compound 1 µM; stronger effect = lower value
Kindly provide the numeric value in % only, without the unit symbol.

Could you tell me which viability, T/C is on file for CC1(O)CCCC1n1c(=O)c(C(F)F)cc2cnc(NC3CCN(S(C)(=O)=O)CC3)nc21 (configuration not stated) + C=CC(=O)N1CCN(c2nc(OCC3CCCN3C)nc3c(F)c(-c4nc(N)cc(C)c4C(F)(F)F)c(Cl)cc23)C(C)C1 ?
19.1

Could you tell me which viability, T/C is on file for CC(=O)OC12COC1CC(O)C1(C)C(=O)C(O)C3=C(C)C(OC(=O)C(O)C(NC(=O)OC(C)(C)C)c4ccccc4)CC(O)(C(OC(=O)c4ccccc4)C21)C3(C)C (configuration not stated) + C=CC(=O)N1CCN(c2nc(OCC3CCCN3C)nc3c(F)c(-c4nc(N)cc(C)c4C(F)(F)F)c(Cl)cc23)C(C)C1 ?
11.6

* * *

Test system: LG0567-F671-PDC complex spheroids viability
Assay: Anticancer human tumor LG0567-F671-PDC cell line growth inhibition [RAS];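 further: spheroids exposed to compound for seven days before readout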
Conditions: second compound 0.01 µM; first compound 0.1 µM; stronger effect = lower value
endpoint_label: viability, T/C

Could you tell me which viability, T/C is on file for NC1c2ccccc2OC12CCN(c1cnc3c(N4CCCc5ncccc54)n[nH]c3n1)CC2 (stereo not given) + C=CC(=O)N1CCN(c2nc(OCC3CCCN3C)nc3c(F)c(-c4nc(N)cc(C)c4C(F)(F)F)c(Cl)cc23)C(C)C1 ?
3.73%

Could you tell me which viability, T/C is on file for C=CC(=O)Nc1cc(Nc2nccc(-c3cn(C)c4ccccc34)n2)c(OC)cc1N(C)CCN(C)C + C=CC(=O)N1CCN(c2nc(OCC3CCCN3C)nc3c(F)c(-c4nc(N)cc(C)c4C(F)(F)F)c(Cl)cc23)C(C)C1 ?
8.19%

Could you tell me which viability, T/C is on file for C[C@@H](NC(=O)c1ncnc(N)c1Cl)c1ncc(C(=O)Nc2cc(C(F)(F)F)c(Cl)cn2)s1 + C=CC(=O)N1CCN(c2nc(OCC3CCCN3C)nc3c(F)c(-c4nc(N)cc(C)c4C(F)(F)F)c(Cl)cc23)C(C)C1 ?
16.7%

Could you tell me which viability, T/C is on file for CCN1CCN(Cc2ccc(Nc3ncc(F)c(-c4cc(F)c5nc(C)n(C(C)C)c5c4)n3)nc2)CC1 + C=CC(=O)N1CCN(c2nc(OCC3CCCN3C)nc3c(F)c(-c4nc(N)cc(C)c4C(F)(F)F)c(Cl)cc23)C(C)C1 ?
11.8%

Could you tell me which viability, T/C is on file for CC(Nc1ccc2c(c1)OCCn1cc(N3C(=O)OCC3C(F)F)nc1-2)C(N)=O (stereo not given) + C=CC(=O)N1CCN(c2nc(OCC3CCCN3C)nc3c(F)c(-c4nc(N)cc(C)c4C(F)(F)F)c(Cl)cc23)C(C)C1 ?
8.85%

* * *

System: LG0567-F671-PDC complex spheroids viability
Test: Anticancer human tumor LG0567-F671-PDC cell line growth inhibition [RAS];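 further: spheroids exposed to compound for seven days before readout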;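 on IC50: luminescence signal used as a proxy for viable cells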
Details: curve of first compound; second compound 0.0949 µM
endpoint_label: IC50

Could you tell me which IC50 is on file for Nc1ccn(C2OC(CO)C(O)C2(F)F)c(=O)n1 (stereo not drawn) + CCn1c(-c2cc(N3CCN(C)CC3)cnc2C(C)OC)c2c3cc(ccc31)-c1csc(n1)CC(NC(=O)C1CC1C)C(=O)N1CCCC(N1)C(=O)OCC(C)(C)C2 ?
< 3.16 nM

Could you tell me which IC50 is on file for CCN1CCN(Cc2ccc(Nc3ncc(F)c(-c4cc(F)c5nc(C)n(C(C)C)c5c4)n3)nc2)CC1 + CCn1c(-c2cccnc2C(C)OC)c2c3cc(ccc31)N1CCOC(CC(NC(=O)C(C(C)C)N(C)C(=O)C3(F)CCN(C(=O)C#CC(C)(C)N(C)C)CC3)C(=O)N3CCCC(N3)C(=O)OCC(C)(C)C2)C1 ?
< 3.16 nM

Could you tell me which IC50 is on file for O=C(c1ccc(F)c(F)c1Nc1ccc(I)cc1F)N1CC(O)([C@@H]2CCCCN2)C1 + CCn1c(-c2cccnc2C(C)OC)c2c3cc(ccc31)N1CCOC(CC(NC(=O)C(C(C)C)N(C)C(=O)C3(F)CCN(C(=O)C#CC(C)(C)N(C)C)CC3)C(=O)N3CCCC(N3)C(=O)OCC(C)(C)C2)C1 ?
< 3.16 nM

Could you tell me which IC50 is on file for CC1(C)CCC(Nc2ncc(C(F)(F)F)c(-c3c[nH]c4c(P(C)(C)=O)c(C#N)ccc34)n2)CN1 (stereo not drawn) + CCn1c(-c2cc(N3CCN(C)CC3)cnc2C(C)OC)c2c3cc(ccc31)-c1csc(n1)CC(NC(=O)C1CC1C)C(=O)N1CCCC(N1)C(=O)OCC(C)(C)C2 ?
< 0.949 nM

Could you tell me which IC50 is on file for CC(=O)OC12COC1CC(O)C1(C)C(=O)C(O)C3=C(C)C(OC(=O)C(O)C(NC(=O)OC(C)(C)C)c4ccccc4)CC(O)(C(OC(=O)c4ccccc4)C21)C3(C)C (stereo not drawn) + CCn1c(-c2cccnc2C(C)OC)c2c3cc(ccc31)N1CCOC(CC(NC(=O)C(C(C)C)N(C)C(=O)C3(F)CCN(C(=O)C#CC(C)(C)N(C)C)CC3)C(=O)N3CCCC(N3)C(=O)OCC(C)(C)C2)C1 ?
< 31.6 nM

Could you tell me which IC50 is on file for CC1(O)CCCC1n1c(=O)c(C(F)F)cc2cnc(NC3CCN(S(C)(=O)=O)CC3)nc21 (stereo not drawn) + CCn1c(-c2cccnc2C(C)OC)c2c3cc(ccc31)N1CCOC(CC(NC(=O)C(C(C)C)N(C)C(=O)C3(F)CCN(C(=O)C#CC(C)(C)N(C)C)CC3)C(=O)N3CCCC(N3)C(=O)OCC(C)(C)C2)C1 ?
< 31.6 nM

Could you tell me which IC50 is on file for CC(C)NCC(C(=O)N1CCN(c2ncnc3c2C(C)CC3O)CC1)c1ccc(Cl)cc1 (stereo not drawn) + CCn1c(-c2cc(N3CCN(C)CC3)cnc2C(C)OC)c2c3cc(ccc31)-c1csc(n1)CC(NC(=O)C1CC1C)C(=O)N1CCCC(N1)C(=O)OCC(C)(C)C2 ?
< 31.6 nM

Could you tell me which IC50 is on file for C=CC(=O)N1CCN(c2nc(OCC3CCCN3C)nc3c(F)c(-c4nc(N)cc(C)c4C(F)(F)F)c(Cl)cc23)C(C)C1 (stereo not drawn) + CCn1c(-c2cccnc2C(C)OC)c2c3cc(ccc31)N1CCOC(CC(NC(=O)C(C(C)C)N(C)C(=O)C3(F)CCN(C(=O)C#CC(C)(C)N(C)C)CC3)C(=O)N3CCCC(N3)C(=O)OCC(C)(C)C2)C1 ?
< 3.16 nM

Could you tell me which IC50 is on file for O=C(c1ccc(F)c(F)c1Nc1ccc(I)cc1F)N1CC(O)([C@@H]2CCCCN2)C1 + CCn1c(-c2cc(N3CCN(C)CC3)cnc2C(C)OC)c2c3cc(ccc31)-c1csc(n1)CC(NC(=O)C1CC1C)C(=O)N1CCCC(N1)C(=O)OCC(C)(C)C2 ?
< 3.16 nM

Could you tell me which IC50 is on file for Cc1nc(N2CCC3(CC2)COC(C)C3N)c(CO)nc1Sc1ccnc(N)c1Cl (stereo not drawn) + CCn1c(-c2cccnc2C(C)OC)c2c3cc(ccc31)N1CCOC(CC(NC(=O)C(C(C)C)N(C)C(=O)C3(F)CCN(C(=O)C#CC(C)(C)N(C)C)CC3)C(=O)N3CCCC(N3)C(=O)OCC(C)(C)C2)C1 ?
< 31.6 nM

Could you tell me which IC50 is on file for CC(C)n1nc(-c2ccc3oc(N)nc3c2)c2c(N)ncnc21 + CCn1c(-c2cc(N3CCN(C)CC3)cnc2C(C)OC)c2c3cc(ccc31)-c1csc(n1)CC(NC(=O)C1CC1C)C(=O)N1CCCC(N1)C(=O)OCC(C)(C)C2 ?
< 0.316 nM

Could you tell me which IC50 is on file for CCc1c2c(nc3ccc(O)cc13)-c1cc3c(c(=O)n1C2)COC(=O)[C@]3(O)CC + CCn1c(-c2cc(N3CCN(C)CC3)cnc2C(C)OC)c2c3cc(ccc31)-c1csc(n1)CC(NC(=O)C1CC1C)C(=O)N1CCCC(N1)C(=O)OCC(C)(C)C2 ?
< 0.949 nM

Could you tell me which IC50 is on file for CC(C)NCC(C(=O)N1CCN(c2ncnc3c2C(C)CC3O)CC1)c1ccc(Cl)cc1 (stereo not drawn) + CCn1c(-c2cccnc2C(C)OC)c2c3cc(ccc31)N1CCOC(CC(NC(=O)C(C(C)C)N(C)C(=O)C3(F)CCN(C(=O)C#CC(C)(C)N(C)C)CC3)C(=O)N3CCCC(N3)C(=O)OCC(C)(C)C2)C1 ?
< 31.6 nM
